testedSystem: PRMT5/MEP50 protein complex (Homo sapiens (Human))
testName: PRMT5 biochemical assay (3H-SAM methylation of H4(1-21) peptide, filter plate scintillation)
experimentalConditions: 10 nM PRMT5/MEP50 complex, 200 nM H4(1-21) peptide, 1 uM SAM, 25 minute incubation at room temperature
Label scheme for IC50: zone 1 = under 2 nM, zone 2 = from 2 nM up to 300 nM, zone 3 = 300 nM and over

Known results for compounds:
[
  {
    "compound": "CN1CCc2c(cccc2O[C@H]2C[C@@H](n3cc(F)c4c(N)ncnc43)[C@H](O)[C@@H]2O)C1",
    "groupLabel": "zone 2"
  },
  {
    "compound": "Nc1ncnc2c1c(Cl)cn2[C@@H]1C[C@H](Oc2ccc(F)c3c2CNCC3)[C@@H](O)[C@H]1O",
    "groupLabel": "zone 1"
  },
  {
    "compound": "Cc1ncnc2c1ccn2[C@@H]1C[C@H](Oc2cccc3c2CC(N)CO3)[C@@H](O)[C@H]1O (single isomer, unassigned) [Example 189]",
    "groupLabel": "zone 3"
  },
  {
    "compound": "Cc1ncnc2c1ccn2[C@@H]1C[C@H](Oc2ccc(Cl)cc2C(O)CN)[C@@H](O)[C@H]1O (some centres unmarked)",
    "groupLabel": "zone 2"
  },
  {
    "compound": "CN(c1cc(N)ncn1)[C@@H]1C[C@H]([C@H](O)c2ccc(F)c(F)c2)[C@@H](O)[C@H]1O",
    "groupLabel": "zone 3"
  }
]

For the record CN(c1ncnc(N)n1)[C@@H]1C[C@H]([C@@H](O)c2ccc(F)c(F)c2)[C@@H](O)[C@H]1O , report the class its IC50 corresponds to. zone 3

For the record Cc1ncnc2c1ccn2[C@@H]1C[C@H](Oc2cc(C#N)cc3c2CNCCO3)[C@@H](O)[C@H]1O , report the class its IC50 corresponds to. zone 1

* * *

testedSystem: PRMT5/MEP50 protein complex (Homo sapiens (Human), UniProt O14744)
Sequence (O14744 other isoform, or with tags, fused parts or gaps): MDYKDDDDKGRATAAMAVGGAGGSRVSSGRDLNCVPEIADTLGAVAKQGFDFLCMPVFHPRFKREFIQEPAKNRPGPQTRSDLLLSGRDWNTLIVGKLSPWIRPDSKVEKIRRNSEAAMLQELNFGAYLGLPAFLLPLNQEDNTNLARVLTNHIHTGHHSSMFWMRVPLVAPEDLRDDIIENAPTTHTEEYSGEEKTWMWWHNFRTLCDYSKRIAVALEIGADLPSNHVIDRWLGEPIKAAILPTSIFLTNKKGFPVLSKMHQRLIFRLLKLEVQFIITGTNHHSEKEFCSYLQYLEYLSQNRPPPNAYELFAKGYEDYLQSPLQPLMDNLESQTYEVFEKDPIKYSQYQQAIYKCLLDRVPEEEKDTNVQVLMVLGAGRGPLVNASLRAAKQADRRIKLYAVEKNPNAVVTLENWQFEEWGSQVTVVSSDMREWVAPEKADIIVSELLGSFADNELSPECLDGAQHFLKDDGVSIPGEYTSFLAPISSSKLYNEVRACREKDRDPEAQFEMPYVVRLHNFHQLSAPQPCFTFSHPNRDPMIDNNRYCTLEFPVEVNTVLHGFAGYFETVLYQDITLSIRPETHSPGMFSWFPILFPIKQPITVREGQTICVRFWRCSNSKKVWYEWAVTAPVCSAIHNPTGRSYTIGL
Sequence (Q9BQA1 whole entry partner): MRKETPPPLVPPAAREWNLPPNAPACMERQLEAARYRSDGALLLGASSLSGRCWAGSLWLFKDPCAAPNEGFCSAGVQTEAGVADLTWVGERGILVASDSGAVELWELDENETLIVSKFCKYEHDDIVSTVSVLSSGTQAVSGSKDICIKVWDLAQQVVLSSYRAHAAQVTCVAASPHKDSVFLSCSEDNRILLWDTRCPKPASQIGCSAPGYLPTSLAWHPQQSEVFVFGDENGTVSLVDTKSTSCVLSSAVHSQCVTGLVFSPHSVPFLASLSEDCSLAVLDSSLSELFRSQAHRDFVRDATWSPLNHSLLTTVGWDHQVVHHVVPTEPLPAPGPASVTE
testName: PRMT5 biochemical assay (3H-SAM methylation of H4(1-21) peptide, filter plate scintillation)
experimentalConditions: 10 nM PRMT5/MEP50 complex, 200 nM H4(1-21) peptide, 1 uM SAM, 25 minute incubation at room temperature
measurementName: pIC50
Answers are plain numbers, as −log10 of the molar value.

Check out these entries, answers already filled in.
[
  {
    "compound": "CO[C@H]1C[C@@H](n2ccc3c(C)ncnc32)[C@H](O)[C@@H]1O (racemic) [Example 59]",
    "testedSystem": "PRMT5/MEP50 protein complex (Homo sapiens (Human), UniProt O14744)",
    "pIC50": 5.24
  },
  {
    "compound": "Nc1ncnc2c1c(F)cn2[C@@H]1C[C@H](Oc2cc(C(F)(F)F)cc3c2CNCC3)[C@@H](O)[C@H]1O",
    "testedSystem": "PRMT5/MEP50 protein complex (Homo sapiens (Human), UniProt O14744)",
    "pIC50": 9.00
  },
  {
    "compound": "CN(c1ccnc(N)n1)[C@@H]1C[C@H]([C@@H](O)c2ccc(F)c(F)c2)[C@@H](O)[C@H]1O",
    "testedSystem": "PRMT5/MEP50 protein complex (Homo sapiens (Human), UniProt O14744)",
    "pIC50": 5.69
  }
]

For the compound Cc1ncnc2c1ccn2[C@@H]1C[C@H](Oc2ccc(F)cc2CO)[C@@H](O)[C@H]1O , what pIC50 is on record? 4.99

* * *

Kindly supply the reported IC50 values for the records listed here.
testedSystem: PRMT5/MEP50 protein complex (Homo sapiens (Human))
testName: PRMT5 biochemical assay (3H-SAM methylation of H4(1-21) peptide, filter plate scintillation)
experimentalConditions: 10 nM PRMT5/MEP50 complex, 200 nM H4(1-21) peptide, 1 uM SAM, 25 minute incubation at room temperature
Answers are plain numbers, in nM.

[
  {
    "compound": "Cc1ncnc2c1ccn2[C@@H]1C[C@H](Oc2cccc3c2CN[C@@H](C)CO3)[C@@H](O)[C@H]1O [Example 207]",
    "unitSymbol": "nM",
    "endpointValue": 24
  },
  {
    "compound": "Cc1ncnc2c1ccn2[C@@H]1C[C@H]([C@H](O)c2ccc(F)c(Cl)c2)[C@@H](O)[C@H]1O [Example 5]",
    "unitSymbol": "nM",
    "endpointValue": 25
  },
  {
    "compound": "Cc1ncnc2c1ccn2[C@@H]1C[C@H](Oc2cc(Cl)c(Cl)cc2OCCN)[C@@H](O)[C@H]1O [Example 151]",
    "unitSymbol": "nM",
    "endpointValue": 78
  },
  {
    "compound": "Cc1ncnc2c1ccn2[C@@H]1C[C@H]([C@@H](O)c2cccc(Cl)c2)[C@@H](O)[C@H]1O [Example 8]",
    "unitSymbol": "nM",
    "endpointValue": 3390
  },
  {
    "compound": "CCc1cc2c(c(O[C@H]3C[C@@H](n4cc(F)c5c(N)ncnc54)[C@H](O)[C@@H]3O)c1)CNCC2 [Example 106]",
    "unitSymbol": "nM",
    "endpointValue": 2
  },
  {
    "compound": "Nc1ncnc2c1c(F)cn2[C@@H]1C[C@H](Oc2ccc(F)c3c2CNCC3)[C@@H](O)[C@H]1O [Example 100]",
    "unitSymbol": "nM",
    "endpointValue": 1
  }
]

Now for a further compound.
For the compound Nc1ncnc2c1c(Br)cn2[C@@H]1C[C@H](Oc2cc(F)c(F)c3c2CNCC3)[C@@H](O)[C@H]1O [Example 125] , what IC50 is on record? 1

* * *

Kindly supply the reported pIC50 values for the records listed here.
testedSystem: PRMT5/MEP50 protein complex (Homo sapiens (Human))
testName: PRMT5 biochemical assay (3H-SAM methylation of H4(1-21) peptide, filter plate scintillation)
experimentalConditions: 10 nM PRMT5/MEP50 complex, 200 nM H4(1-21) peptide, 1 uM SAM, 25 minute incubation at room temperature
Numbers only, as −log10 of the molar value.

Check out these entries, answers already filled in.
[
  {
    "smi": "Cc1ncnc2c1ccn2[C@@H]1C[C@H](Oc2cc(Cl)cc3c2CNCCO3)[C@@H](O)[C@H]1O",
    "pIC50": 8.70
  },
  {
    "smi": "Nc1ncnc2c1c(F)cn2[C@@H]1C[C@H](Oc2cc(Br)c(F)c3c2CNCC3)[C@@H](O)[C@H]1O",
    "pIC50": 9.00
  },
  {
    "smi": "Cc1ncnc2c1ccn2[C@@H]1C[C@H](Oc2cccc3c2CCN(C)C3)[C@@H](O)[C@H]1O",
    "pIC50": 5.78
  },
  {
    "smi": "Cc1ncnc2c1c(F)cn2[C@@H]1C[C@H](Oc2cc(C#N)cc3c2CNCC3)[C@@H](O)[C@H]1O",
    "pIC50": 9.00
  },
  {
    "smi": "Cc1ncnc2c1ccn2[C@@H]1C[C@H](Oc2cc(F)c(F)cc2CN)[C@@H](O)[C@H]1O",
    "pIC50": 8.70
  },
  {
    "smi": "Cc1ncnc2c1ccn2[C@@H]1C[C@H](Oc2nc(OC(C)C)c(F)c3c2CNCC3)[C@@H](O)[C@H]1O",
    "pIC50": 6.74
  },
  {
    "smi": "Cc1ncnc2c1ccn2[C@@H]1C[C@H]([C@](C)(O)c2ccc(F)cc2)[C@@H](O)[C@H]1O",
    "pIC50": 7.19
  }
]

Now for a further compound.
For the compound Cc1ncnc2c1ccn2[C@@H]1C[C@H](Oc2cc(F)c(F)c3c2CNCC3)[C@@H](O)[C@H]1O , what pIC50 is on record? 9.00

* * *

Kindly supply the reported log10 of IC50 values for the records listed here.
testedSystem: PRMT5/MEP50 protein complex (Homo sapiens (Human), UniProt O14744)
testName: PRMT5 biochemical assay (3H-SAM methylation of H4(1-21) peptide, filter plate scintillation)
experimentalConditions: 10 nM PRMT5/MEP50 complex, 200 nM H4(1-21) peptide, 1 uM SAM, 25 minute incubation at room temperature
Form field - Quantity: IC50; Unit: µM; Scale: log10

Check out these entries, answers already filled in.
[
  {
    "compound": "Cc1ncnc2c1ccn2[C@@H]1C[C@H](Oc2ccc(F)c3c2C(C)NCC3)[C@@H](O)[C@H]1O (single isomer, unassigned) [Example 214]",
    "measurementName": "log10 of IC50",
    "endpointValue": -2.10
  },
  {
    "compound": "CC(F)(F)c1cc2c(c(O[C@H]3C[C@@H](n4cc(F)c5c(N)ncnc54)[C@H](O)[C@@H]3O)c1)CNCC2",
    "measurementName": "log10 of IC50",
    "endpointValue": -2.40
  }
]

Parameter requested: log10 of IC50. Apply to each item below.
1. Cc1nccc(N(C)[C@@H]2C[C@H]([C@@H](O)c3ccc(F)c(F)c3)[C@@H](O)[C@H]2O)n1
2. Nc1ncnc2c1c(Cl)cn2[C@@H]1C[C@H](Oc2cc(Cl)cc3c2CNCC3)[C@@H](O)[C@H]1O
3. CCOc1nc(O[C@H]2C[C@@H](n3ccc4c(C)ncnc43)[C@H](O)[C@@H]2O)c2c(c1F)CCNC2
4. Cc1ncnc2c1ccn2[C@@H]1C[C@H](Oc2ccc(F)c3c2C(C)NCC3)[C@@H](O)[C@H]1O (single isomer, unassigned) [Example 213]
5. Cc1ncnc2c1ccn2[C@@H]1C[C@H](C(C)(C)O)[C@@H](O)[C@H]1O
6. COc1cc(O[C@H]2C[C@@H](n3ccc4c(C)ncnc43)[C@H](O)[C@@H]2O)c2c(c1F)CCNC2

1: 0.43; 2: -3.00; 3: -1.26; 4: -3.00; 5: 0.57; 6: -3.00
